# assaySystem: T1, human GIP receptor (human, UniProt P48546 22-466)
# T1 sequence (looked up): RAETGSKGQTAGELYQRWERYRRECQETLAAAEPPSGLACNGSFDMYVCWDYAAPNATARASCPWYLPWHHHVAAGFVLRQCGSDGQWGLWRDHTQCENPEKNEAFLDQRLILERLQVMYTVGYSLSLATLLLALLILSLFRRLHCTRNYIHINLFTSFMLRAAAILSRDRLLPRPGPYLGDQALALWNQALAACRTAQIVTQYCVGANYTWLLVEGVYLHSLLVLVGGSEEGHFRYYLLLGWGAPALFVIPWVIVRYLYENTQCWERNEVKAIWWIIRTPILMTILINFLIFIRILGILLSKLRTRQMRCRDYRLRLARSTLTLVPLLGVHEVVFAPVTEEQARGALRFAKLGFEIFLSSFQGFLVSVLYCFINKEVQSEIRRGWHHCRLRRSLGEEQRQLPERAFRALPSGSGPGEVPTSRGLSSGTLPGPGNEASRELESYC
# assayDetails: cell-based or functional assay
Recorded EC50, cAMP for the following binders

# binder, EC50, cAMP [nM]
data = [
    ("YXEGTXTSDXSIXLDXKAQXEFIXXLIEGKPSSGAPPPS (Aib2, αMeF(2F)6, 4Pal10, αMeL13, Orn16, Aib20, D-Glu24, αMeY25, K17 and K30: K(AEEA2-(γ-Glu)-CO-(CH2)10-CH3), C-terminal NH2) [Example 140]", 0.0121),
    ("YXEGTXTSDXSIXLDXIAQXEFIXXLIKGGKSSGAPPPS (Aib2, αMeF(2F)6, 4Pal10, αMeL13, Orn16, Aib20, D-Glu24, αMeY25, K28 and K31: K(AEEA2-(γ-Glu)-CO-(CH2)14-CH3), C-terminal NH2) [Example 26]", 0.0218),
    ("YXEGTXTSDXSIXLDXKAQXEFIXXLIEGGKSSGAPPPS (Aib2, αMeF(2F)6, Ac6c10, αMeL13, Orn16, Aib20, D-Glu24, αMeY25, K17 and K31: K(AEEA2-(γ-Glu)-CO-(CH2)12-CO2H), C-terminal NH2) [Example 54]", 0.0675),
    ("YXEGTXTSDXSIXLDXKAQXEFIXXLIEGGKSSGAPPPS (Aib2, αMeF(2F)6, 4Pal10, αMeL13, Orn16, Aib20, D-Glu24, αMeY25, K17 and K31: K(AEEA3-(γ-Glu)-CO-(CH2)14-CH3), C-terminal NH2) [Example 31]", 0.00157),
    ("YXEGTXTSDXSIXLDXKAQXEFIXXLIKGGPSSGAPPPS (Aib2, αMeF(2F)6, 4Pal10, αMeL13, Orn16, Aib20, D-Glu24, αMeY25, K17 and K28: K(AEEA2-(γ-Glu)-CO-(CH2)14-CH3), C-terminal NH2) [Example 23]", 0.00299),
    ("YXEGTXTSDXXIXLDXKAQXEXIKXLIEGGPSSGAPPPS (Aib2, αMeF(2F)6, 4Pal10, Aib11, αMeL13, Orn16, Aib20, αMeF22, αMeY25, K17 and K24: K(AEEA2-(γ-Glu)-CO-(CH2)12-CO2H), C-terminal NH2) [Example 117]", 0.0352),
    ("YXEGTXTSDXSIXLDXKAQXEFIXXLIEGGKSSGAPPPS (Aib2, αMeF(2F)6, 4Pal10, αMeL13, Orn16, Aib20, D-Glu24, αMeY25, K17 and K31: K(AEEA-(γ-Glu)-AEEA-CO-(CH2)12-CO2H), C-terminal NH2) [Example 43]", 0.0123),
    ("YXEGTXTSDXSIXLDXKAQXEXIKYLIEGGPSSGAPPPS (Aib2, αMeF(2F)6, 4Pal10, αMeL13, Orn16, Aib20, αMeF22, K17 and K24: K(AEEA2-(γ-Glu)-CO-(CH2)12-CO2H), C-terminal NH2) [Example 85]", 0.0312),
    ("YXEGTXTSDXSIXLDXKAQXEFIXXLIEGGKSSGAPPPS (Aib2, αMeF(2F)6, 4Pal10, αMeL13, Orn16, Aib20, D-Glu24, αMeY25, K17 and K31: K(AEEA2-(εK)-CO-(CH2)12-CO2H), C-terminal NH2) [Example 33]", 0.00957),
    ("YXEGTXTSDYXIXLDXKAQXEFIXXLIEGGKSSGAPPPS (Aib2, αMeF(2F)6, αMeS11, αMeL13, Orn16, Aib20, D-Glu24, αMeY25, K17 and K31: K(AEEA2-(γ-Glu)-CO-(CH2)12-CO2H), C-terminal NH2) [Example 49]", 0.0205),
    ("YXEGTXTSDXSIXLDXKAQXEFIXXLIEGGPSSGAPPPSK (Aib2, αMeF(2F)6, 4Pal10, αMeL13, Orn16, Aib20, D-Glu24, αMeY25, K17 and K40: K(AEEA2-(γ-Glu)-CO-(CH2)10-CH3), C-terminal NH2) [Example 141]", 0.00723),
    ("YXEGTXTSDXSIXLDXKAQXXFIXXLIEGGKSSGAPPPS (Aib2, αMeF(2F)6, 4Pal10, αMeL13, Orn16, Aib20, Orn21, D-Glu24, αMeY25, K17 and K31: K(AEEA2-(γ-Glu)-CO-(CH2)12-CO2H), C-terminal NH2) [Example 150]", 0.0268),
    ("YXEGTXTSDXSIXLDXKAQXKFIXXLIEGGPSSGAPPPS (Aib2, αMeF(2F)6, 4Pal10, αMeL13, Orn16, Aib20, D-Glu24, αMeY25, K17 and K21: K(AEEA3-(γ-Glu)-CO-(CH2)12-CO2H), C-terminal NH2) [Example 77]", 0.0288),
    ("YXEGTXTSDXSIXLDXKAQXEFIKXLIEGGPSSGAPPPS (Aib2, αMeF(2F)6, 4Pal10, αMeL13, Orn16, Aib20, αMeF25, K17 and K24: K(AEEA2-(γ-Glu)-CO-(CH2)12-CO2H), C-terminal NH2) [Example 83]", 0.0223),
]
